Cited source: paper PMC9271048

Tested on: PaKAI2s (5 KAI2 protein homologs in P. aegyptiaca)
Assay: YLG-based competition assay on KAI2 protein homologs of P. aegyptiaca
Format: biochemical, Phelipanche aegyptiaca
Conditions: KAI2d4; YLG competition; Supplementary Fig. 27; read-out: IC50, replicate 2

Molecule	Result units	Value modifier	IC50
CC1=C[C@@H](OC(=O)N2CCN(C(=O)COc3ccc(Br)cc3C)CC2)OC1=O [(R)-4a]	µM	>	100
CC1=CC(OC(=O)N2CCN(C(=O)COc3ccc(Br)cc3C)CC2)OC1=O (stereo not shown)	µM	=	17.7
CC1=CC(OC(=O)N2CCN(C(=O)COc3ccc(Br)cc3C)CC2)CC1=O (stereo not shown)	µM	=	85.3
CC1=C[C@H](O/C=C2/C(=O)O[C@@H]3c4ccccc4C[C@H]23)OC1=O (racemic) [rac-GR24, reference compound]	µM	=	5.83
CC1=CC(OC(=O)N2CCN(C(=O)COc3ccc(Br)cc3C)CC2)N(C)C1=O (stereo not shown)	µM	>	100
CC1=CC(CC(=O)N2CCN(C(=O)COc3ccc(Br)cc3C)CC2)OC1=O (stereo not shown)	µM	=	31.7
CC1=C[C@H](OC(=O)N2CCN(C(=O)COc3ccc(Br)cc3C)CC2)OC1=O [(S)-4a]	µM	=	6.25
